List of EC50 values.
# System Under Test: T1, membrane-bound full-length human CD89 on HEK293F cells (human, UniProt P24071 22-287)
# T1 construct: 2 or transient transfectants; also called membrane human CD89; human FcaRI
# Assay Method Text: FACS HEK293F-huCD89
Lab book: enter the figure in mg/L, no units written.

These recorded examples may help you get a feel for the data.
[
  {
    "Binder": "CD89/IgA blocking mouse anti-human CD89-specific antibody 16D6 (antibody, V domains shown, also called 16D16 [sic]) VH: QVQLQQSGAELMKPGASVKISCKATGYTFSTYWIEWVKQRPGHGLEWIGEILPGSGSANYNEKFKGKATFTADTSSNTAYMQLSSLTFEDSAVYYCAKGFGSPYYYAMDYWGQGTSVTVSS VL: EIVLTQSPALMAASPGEKVTITCSVSSSISSSNLHWYQQKSETSPKPWIYGTSKLASGVPVRFSGSGSGTSYSLTISNMEAEDAATYYCQQWSSFPLTFGGGTKLEIK",
    "Result Unit": "mg/L",
    "Quantitative Readout": 1.62
  },
  {
    "Binder": "CD89/IgA blocking mouse anti-human CD89-specific antibody 20B4 (antibody, V domains shown) VH: QVQLKESGPGLVAPSQSLSITCTVSGFSLTSYGVHWVRQPPGKGLEWLGIIWAGGSTSYNSALMSRLSISKDNSKSQVFLKMNSLQTDDTAMYYCARDHYDLFAYWGQGTLVTVSA VL: DILMTQSPSSMSVSLGDTVSITCHASQDISRNIGWLQQKPGKSFKGLIYHGTNLEDGVPSRFSGSGSGADYSLTISSLESEDFADYYCVQYAQFPRTFGGGTKLEIK",
    "Result Unit": "mg/L",
    "Quantitative Readout": 0.26
  },
  {
    "Binder": "CD89/IgA blocking mouse anti-human CD89-specific antibody 30C7 (antibody, V domains shown) VH: QVQLQQSGPELVRPGVSVKISCKGSGYTFTDYVMHWVKQSHAKSLEWIGVISTYSGNTNYNQKFKGKATMTVDKSSSTAYMELARLTSEDSAIYYCARESDGYYFDYWGQGTTLTVSS VL: DIVMSQSPSSLAVSAGEKVTMSCKSSQSLLNSRTRKNYLAWYQQKPGQSPKLLIYWASTRESGVPDRFTGSGSGTDFTLTISSVQAEDLAVYYCKQSYNLMYTFGGGTKLEIK",
    "Result Unit": "mg/L",
    "Quantitative Readout": 0.484
  }
]

[Q] Return reported EC50. Input binder: CD89/IgA blocking mouse anti-human CD89-specific antibody 10E7 (antibody, V domains shown, biotinylated in the Octet assay; also called mouse 10E7) VH: EVQLVESGGGLVQPGGSLKLSCAASGLTFSSYGMSWVRQTPDKRLELVATINGNGDITYYPDSVKGRFTISRDNAKNTLYLQMSSLKSEDTAMYYCARDYDYDYAMDYWGQGTSVTVSS VL: DIQMTQSTSSLSASLGDSVTISCRASQDIINYLNWYQQKPDGTVKLLIYYTSRLHSGVPSRFSGSGSGTEYSLTVSNLEKEDIATYFCQQGKTLPYTFGGGTKLEIK
[A] 0.637
